# TARGET_OR_SYSTEM: Cellular tumor antigen p53 (Homo sapiens)
# TEST: Confirmatory qHTS for small molecule compounds that upregulate eGFP-tagged delta133p53alpha (in C-terminal) cells.
# EXPERIMENTAL_PARAMETERS: delta133p53alpha-eGFP (C-terminal) reporter cells, GFP fluorescence upregulation; series mostly up to 57.5 µM
Inconclusive results are not listed. The source made the active and inactive calls. Calls come from the whole dose curve; as a rule, active = well fitted activation curve with a large enough effect; inconclusive = small, poorly fitted or top-dose-only effect; inactive = no such curve, though single readings can be large or run the other way.

COMPOUND | Potency
C[C@]12Cc3cn4c(nc3C=C1CCC1C2CC[C@@]2(C)[C@H]1CC[C@@]2(O)C#N)nc1ccccc14 (some centres undefined) | 19.3 µM (active)
c1ccc2c(c1)[I+]c1ccccc1-2 | 19.3 µM (active)
c1ccc2c(c1)OCC(C1=NCCN1)O2 (centres undefined) | inactive
CC1(C(=O)O)C2CCC(O2)C1(C)C(=O)O (centres undefined) | inactive
N[C@H](CCCCCP(=O)(O)O)C(=O)O | inactive
CCS(=O)(=O)Nc1cccc(C(=C2CCCCC2)c2cnc[nH]2)c1 | inactive
O=C1/C(=C\c2ccccc2)C[C@@]2(O)[C@H]3Cc4ccc(O)c5c4[C@@]2(CCN3CC2CC2)[C@H]1O5 | 15.3 µM (active)
CN1C2CCC1CC(OC(c1ccccc1)c1ccccc1N)C2 (centres undefined) | inactive
Cc1c2ccncc2c(C)c2c1[nH]c1ccccc12 | 3.06 µM (active)

Values were extracted from PubChem BioAssay AID2060323.
